# ASSAY: Critical micelle concentration by surface tension (ring method)
# Type: physicochemical
# MEASUREMENT_CONTEXT: samples stood 30 min at 22 °C, intersection of two linear regression lines
Square brackets hold non-standard residues; d marks the D form. Peptide text beside a SMILES is read from it. * marks the point of attachment. Palmitoyl = CCCCCCCCCCCCCCCC(=O)*
Would you mind labelling by CMC? At or over 10 µg/mL is yes (1), under is no (0).

compound="CCCCCCCCCCCCCCCC(=O)N[C@@H](CCCCN)C(=O)N[C@H](C(=O)N[C@H](CC(C)C)C(=O)N[C@@H](CCCCN)C(=O)N[C@H](CC(C)C)C(N)=O)C(C)C [SLP6] (Palmitoyl-KV[dL]K[dL]-NH2)" assigned_class="yes (1)"
compound="CCCCCCCCCCCCOS(=O)(=O)[O-].[Na+] [SDS, reference compound]" assigned_class="yes (1)"
compound="CCCCCCCCCCCCCCCC(=O)N[C@@H](CCC(=O)O)C(=O)N[C@H](C(=O)N[C@H](CC(C)C)C(=O)N[C@@H](CC(=O)O)C(=O)N[C@H](CC(C)C)C(=O)N[C@H](C(N)=O)C(C)C)C(C)C [SLP2] (Palmitoyl-EV[dL]D[dL]V-NH2)" assigned_class="no (0)"
compound="CCCCCCCCCCCCCCCC(=O)N[C@@H](CCC(=O)O)C(=O)N[C@H](C(=O)N[C@H](CC(C)C)C(=O)N[C@@H](CC(=O)O)C(=O)N[C@H](CC(C)C)C(=O)O)C(C)C [SLP5] (Palmitoyl-EV[dL]D[dL]-OH)" assigned_class="yes (1)"
compound="CCCCCCCCCCCCCCCC(=O)N[C@@H](CCC(=O)O)C(=O)N[C@@H](CC(=O)O)C(=O)N[C@H](C(=O)N[C@H](CC(C)C)C(=O)N[C@H](CC(C)C)C(N)=O)C(C)C [SLP9] (Palmitoyl-EDV[dL][dL]-NH2)" assigned_class="no (0)"
compound="CCCCCCCCCCCCCCCC(=O)N[C@@H](CCC(=O)O)C(=O)N[C@H](C(=O)N[C@@H](CC(C)C)C(=O)N[C@@H](CC(=O)O)C(=O)N[C@@H](CC(C)C)C(N)=O)C(C)C [SLP7] (Palmitoyl-EVLDL-NH2)" assigned_class="yes (1)"
compound="CCCCCCCCCCCCCCCC(=O)N[C@@H](CCC(=O)O)C(=O)N[C@H](C(=O)N[C@H](CC(C)C)C(=O)N[C@H](CC(C)C)C(N)=O)C(C)C [SLP4] (Palmitoyl-EV[dL][dL]-NH2)" assigned_class="yes (1)"
compound="CCCCCCCCCCCCCCCC(=O)N[C@@H](CCC(=O)O)C(=O)N[C@H](C(=O)N[C@H](CC(C)C)C(=O)N[C@@H](CC(=O)O)C(=O)N[C@H](CC(C)C)C(N)=O)C(C)C [SLP3] (Palmitoyl-EV[dL]D[dL]-NH2)" assigned_class="no (0)"
compound="CCCCCCCCCCCCCCCC(=O)N[C@@H](CCC(=O)O)C(=O)N[C@H](C(=O)N[C@H](CC(C)C)C(=O)N[C@H](CC(C)C)C(=O)N[C@@H](CC(=O)O)C(N)=O)C(C)C [SLP8] (Palmitoyl-EV[dL][dL]D-NH2)" assigned_class="yes (1)"
compound="CCCCCCCCCCCCCCCC(=O)N[C@@H](CCC(=O)O)C(=O)N[C@H](C(=O)N[C@H](CC(C)C)C(=O)N[C@@H](C)C(=O)N[C@@H](CC(=O)O)C(=O)N[C@H](CC(C)C)C(=O)N[C@H](C(N)=O)C(C)C)C(C)C [SLP1] (Palmitoyl-EV[dL]AD[dL]V-NH2)" assigned_class="no (0)"
